// each record: one item and its pIC50 for CHIKV Mac (Chikungunya virus, UniProt Q8JUX6)
Reminder that pIC50 means the negative base-10 logarithm of the concentration expressed in mol/L.

CHIKV Mac (Chikungunya virus, UniProt Q8JUX6) / pIC50 / N#C[C@@]1(c2ccc3c(N)ncnn23)O[C@H](COP(=O)(O)OP(=O)(O)OC[C@H]2O[C@H](Oc3ccccc3)[C@H](O)[C@@H]2O)[C@@H](O)[C@H]1O [Ph-NDPr] : value?
5.03

Now the molecule N#CC1(c2ccc3c(N)ncnn23)OC(COP(=O)(O)OP(=O)(O)OCC2OC(O)C(O)C2O)C(O)C1O (stereo not shown) [NDPr]
6.04

Now consider Nc1ncnc2c1ncn2[C@@H]1O[C@H](COP(=O)(O)OP(=O)(O)OC[C@H]2O[C@H](n3cc(COCCOCCOCCOCCNC(=O)CCCC[C@@H]4SC[C@@H]5NC(=O)N[C@@H]54)nn3)[C@H](O)[C@@H]2O)[C@@H](O)[C@H]1O [biotin-ADPr] and answer again.
4.65

// next record Nc1ncnc2c1ncn2[C@@H]1O[C@H](COP(=O)(O)OP(=O)(O)OC[C@H]2O[C@H](Oc3ccccc3)[C@H](O)[C@@H]2O)[C@@H](O)[C@H]1O [Ph-ADPr]
3.90

Query N#C[C@@]1(c2ccc3c(N)ncnn23)O[C@H](COP(=O)(O)OP(=O)(O)OC[C@H]2O[C@H](Oc3ccc(Cn4cc(COCCOCCOCCOCCNC(=O)CCCC[C@@H]5SC[C@@H]6NC(=O)N[C@@H]65)nn4)cc3)[C@H](O)[C@@H]2O)[C@@H](O)[C@H]1O [biotin-Ph-NDPr] next
6.07

Then what about the molecule N#C[C@@]1(c2ccc3c(N)ncnn23)O[C@H](COP(=O)(O)OP(=O)(O)OC[C@H]2O[C@H](n3cc(COCCOCCOCCOCCNC(=O)CCCC[C@@H]4SC[C@@H]5NC(=O)N[C@@H]54)nn3)[C@H](O)[C@@H]2O)[C@@H](O)[C@H]1O [biotin-NDPr] ?
6.02

====

- TARGET_DESC: CHIKV Mac (Chikungunya virus, UniProt Q8JUX6)
- Sequence (Q8JUX6 1334-1493 limits assumed): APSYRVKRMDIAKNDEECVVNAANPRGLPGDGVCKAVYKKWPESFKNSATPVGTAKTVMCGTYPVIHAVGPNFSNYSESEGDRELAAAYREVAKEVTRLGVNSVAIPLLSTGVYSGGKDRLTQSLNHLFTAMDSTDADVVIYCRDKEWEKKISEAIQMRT
- RUN_DESCRIPTION: biochemical
- Type: binding
Exercise: state measured kon for each of the compounds provided.
Response body: numeric value in M⁻¹ s⁻¹, unit text excluded.

Form field: reported kon of N#C[C@@]1(c2ccc3c(N)ncnn23)O[C@H](COP(=O)(O)OP(=O)(O)OC[C@H]2O[C@H](n3cc(COCCOCCOCCOCCNC(=O)CCCC[C@@H]4SC[C@@H]5NC(=O)N[C@@H]54)nn3)[C@H](O)[C@@H]2O)[C@@H](O)[C@H]1O [biotin-NDPr]
180000

Would you kindly repeat that for Nc1ncnc2c1ncn2[C@@H]1O[C@H](COP(=O)(O)OP(=O)(O)OC[C@H]2O[C@H](n3cc(COCCOCCOCCOCCNC(=O)CCCC[C@@H]4SC[C@@H]5NC(=O)N[C@@H]54)nn3)[C@H](O)[C@@H]2O)[C@@H](O)[C@H]1O [biotin-ADPr] ?
120000

What do you get for Nc1ncnc2c1ncn2[C@@H]1O[C@H](COP(=O)(O)OP(=O)(O)OC[C@H]2O[C@H](Oc3ccc(Cn4cc(COCCOCCOCCOCCNC(=O)CCCC[C@@H]5SC[C@@H]6NC(=O)N[C@@H]65)nn4)cc3)[C@H](O)[C@@H]2O)[C@@H](O)[C@H]1O [biotin-Ph-ADPr] ?
19000

Consider next the compound N#C[C@@]1(c2ccc3c(N)ncnn23)O[C@H](COP(=O)(O)OP(=O)(O)OC[C@H]2O[C@H](Oc3ccc(Cn4cc(COCCOCCOCCOCCNC(=O)CCCC[C@@H]5SC[C@@H]6NC(=O)N[C@@H]65)nn4)cc3)[C@H](O)[C@@H]2O)[C@@H](O)[C@H]1O [biotin-Ph-NDPr] in the same way.
190000

====

- TARGET_DESC: SARS-CoV-2 Mac1 (Severe acute respiratory syndrome coronavirus 2)
- RUN_DESCRIPTION: biochemical
- Assay type: binding
EXPERIMENTAL_READOUT: kon (M⁻¹ s⁻¹)
Numeric only. Scale: M⁻¹ s⁻¹

// returns reported kon for input Nc1ncnc2c1ncn2[C@@H]1O[C@H](COP(=O)(O)OP(=O)(O)OC[C@H]2O[C@H](Oc3ccc(Cn4cc(COCCOCCOCCOCCNC(=O)CCCC[C@@H]5SC[C@@H]6NC(=O)N[C@@H]65)nn4)cc3)[C@H](O)[C@@H]2O)[C@@H](O)[C@H]1O [biotin-Ph-ADPr]
270000

What do we get for Nc1ncnc2c1ncn2[C@@H]1O[C@H](COP(=O)(O)OP(=O)(O)OC[C@H]2O[C@H](n3cc(COCCOCCOCCOCCNC(=O)CCCC[C@@H]4SC[C@@H]5NC(=O)N[C@@H]54)nn3)[C@H](O)[C@@H]2O)[C@@H](O)[C@H]1O [biotin-ADPr] ?
53000

N#C[C@@]1(c2ccc3c(N)ncnn23)O[C@H](COP(=O)(O)OP(=O)(O)OC[C@H]2O[C@H](Oc3ccc(Cn4cc(COCCOCCOCCOCCNC(=O)CCCC[C@@H]5SC[C@@H]6NC(=O)N[C@@H]65)nn4)cc3)[C@H](O)[C@@H]2O)[C@@H](O)[C@H]1O [biotin-Ph-NDPr] ?
300000

Would you kindly repeat that for N#C[C@@]1(c2ccc3c(N)ncnn23)O[C@H](COP(=O)(O)OP(=O)(O)OC[C@H]2O[C@H](n3cc(COCCOCCOCCOCCNC(=O)CCCC[C@@H]4SC[C@@H]5NC(=O)N[C@@H]54)nn3)[C@H](O)[C@@H]2O)[C@@H](O)[C@H]1O [biotin-NDPr] ?
310000

====

Exercise: for every item that follows, state its recorded koff.
- TARGET_DESC: VEEV Mac (Venezuelan equine encephalitis virus, UniProt P27282)
- Sequence (P27282 1330-1489 limits assumed): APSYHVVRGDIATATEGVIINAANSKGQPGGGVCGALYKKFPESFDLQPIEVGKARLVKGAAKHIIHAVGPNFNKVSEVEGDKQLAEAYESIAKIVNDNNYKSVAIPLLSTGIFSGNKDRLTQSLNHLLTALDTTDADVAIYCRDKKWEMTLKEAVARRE
- RUN_DESCRIPTION: biochemical
- Type: binding
- MEASUREMENT_SETUP: read-out: kdis
The reply should be a number in s⁻¹, with the unit left off.

Requested read-out: koff. Entry: Nc1ncnc2c1ncn2[C@@H]1O[C@H](COP(=O)(O)OP(=O)(O)OC[C@H]2O[C@H](n3cc(COCCOCCOCCOCCNC(=O)CCCC[C@@H]4SC[C@@H]5NC(=O)N[C@@H]54)nn3)[C@H](O)[C@@H]2O)[C@@H](O)[C@H]1O [biotin-ADPr]
0.79

What about this compound? N#C[C@@]1(c2ccc3c(N)ncnn23)O[C@H](COP(=O)(O)OP(=O)(O)OC[C@H]2O[C@H](Oc3ccc(Cn4cc(COCCOCCOCCOCCNC(=O)CCCC[C@@H]5SC[C@@H]6NC(=O)N[C@@H]65)nn4)cc3)[C@H](O)[C@@H]2O)[C@@H](O)[C@H]1O [biotin-Ph-NDPr]
0.014

Entry Nc1ncnc2c1ncn2[C@@H]1O[C@H](COP(=O)(O)OP(=O)(O)OC[C@H]2O[C@H](Oc3ccc(Cn4cc(COCCOCCOCCOCCNC(=O)CCCC[C@@H]5SC[C@@H]6NC(=O)N[C@@H]65)nn4)cc3)[C@H](O)[C@@H]2O)[C@@H](O)[C@H]1O [biotin-Ph-ADPr] please
0.083

Queued: N#C[C@@]1(c2ccc3c(N)ncnn23)O[C@H](COP(=O)(O)OP(=O)(O)OC[C@H]2O[C@H](n3cc(COCCOCCOCCOCCNC(=O)CCCC[C@@H]4SC[C@@H]5NC(=O)N[C@@H]54)nn3)[C@H](O)[C@@H]2O)[C@@H](O)[C@H]1O [biotin-NDPr]
0.076

====

- TARGET_DESC: UniProt:P0DTD1
- RUN_DESCRIPTION: biochemical
- Type: binding
- MEASUREMENT_SETUP: IC50
EXPERIMENTAL_READOUT: pIC50
Worth noting: pIC50 values are minus log10 of concentrations stated in mol/L.

Any idea what its pIC50 is? The compound is `N#C[C@@]1(c2ccc3c(N)ncnn23)O[C@H](COP(=O)(O)OP(=O)(O)OC[C@H]2O[C@H](n3cc(COCCOCCOCCOCCNC(=O)CCCC[C@@H]4SC[C@@H]5NC(=O)N[C@@H]54)nn3)[C@H](O)[C@@H]2O)[C@@H](O)[C@H]1O`
7.24

`N#C[C@@]1(c2ccc3c(N)ncnn23)O[C@H](COP(=O)(O)OP(=O)(O)OC[C@H]2O[C@H](Oc3ccc(Cn4cc(COCCOCCOCCOCCNC(=O)CCCC[C@@H]5SC[C@@H]6NC(=O)N[C@@H]65)nn4)cc3)[C@H](O)[C@@H]2O)[C@@H](O)[C@H]1O` ?
7.96

Next: `Nc1ncnc2c1ncn2[C@@H]1O[C@H](COP(=O)(O)OP(=O)(O)OC[C@H]2O[C@H](n3cc(COCCOCCOCCOCCNC(=O)CCCC[C@@H]4SC[C@@H]5NC(=O)N[C@@H]54)nn3)[C@H](O)[C@@H]2O)[C@@H](O)[C@H]1O`
5.46

Another: `Nc1ncnc2c1ncn2[C@@H]1O[C@H](COP(=O)(O)OP(=O)(O)OC[C@H]2O[C@H](Oc3ccc(Cn4cc(COCCOCCOCCOCCNC(=O)CCCC[C@@H]5SC[C@@H]6NC(=O)N[C@@H]65)nn4)cc3)[C@H](O)[C@@H]2O)[C@@H](O)[C@H]1O`
6.89
